# Test system: Jurkat
# assay.procedure: Antitumor activity against Jurkat cells
# Assay type: functional, cell-based
# run.conditions: Homo sapiens
value.kind: IC50 (µM)
Number in µM, nothing else.

In: If you can, please state the reported IC50 value of `COc1ccc(C(=O)O[C@H]2[C@H](O[C@H]3[C@H](OC(C)=O)[C@@H](O[C@H]4C[C@H]5C[C@@H](O)CC[C@]5(C)[C@@]4(O)[C@@H](C)C(=O)OCC(C)C)OC[C@H]3O)OC[C@@H](O)[C@@H]2O)cc1` .
Out: 21.1

In: If you can, please state the reported IC50 value of `COc1ccc(C(=O)O[C@H]2[C@H](O[C@H]3[C@H](OC(C)=O)[C@@H](O[C@H]4C[C@H]5[C@@H]6CC=C7C[C@@H](O)CC[C@]7(C)[C@H]6CC[C@]5(C)[C@@]4(O)[C@H](C)C(=O)OCC(C)C)OC[C@H]3O)OC[C@@H](O)[C@@H]2O)cc1` .
Out: 0.0013

In: If you can, please state the reported IC50 value of `COc1ccc(C(=O)O[C@H]2[C@H](O[C@H]3[C@H](OC(C)=O)[C@@H](O[C@H]4C[C@H]5CCCC[C@]5(C)[C@@]4(O)[C@H](C)C(=O)OCC(C)C)OC[C@H]3O)OC[C@@H](O)[C@@H]2O)cc1` .
Out: 8.9

In: If you can, please state the reported IC50 value of `COc1ccc(C(=O)O[C@H]2[C@H](O[C@H]3[C@H](OC(C)=O)[C@@H](O[C@H]4C[C@H]5C[C@@H](O)CC[C@]5(C)[C@@]4(O)[C@H](C)C(=O)OCC(C)C)OC[C@H]3O)OC[C@@H](O)[C@@H]2O)cc1` .
Out: 14.5

====

So I've got a bunch of compounds here, and I need their IC50 values.
# Tested on: HeLa
# assay.procedure: Antitumor activity against HeLa cells
# Type: functional, cell-based
# run.conditions: Homo sapiens
Your answer should be a number followed by the unit of measure.

In: If you can, please state the reported IC50 value of `COc1ccc(C(=O)O[C@H]2[C@H](O[C@H]3[C@H](OC(C)=O)[C@@H](O[C@H]4C[C@H]5CCCC[C@]5(C)[C@@]4(O)[C@H](C)C(=O)OCC(C)C)OC[C@H]3O)OC[C@@H](O)[C@@H]2O)cc1` .
Out: 14900 nM

In: If you can, please state the reported IC50 value of `COc1ccc(C(=O)O[C@H]2[C@H](O[C@H]3[C@H](OC(C)=O)[C@@H](O[C@H]4C[C@H]5[C@@H]6CC=C7C[C@@H](O)CC[C@]7(C)[C@H]6CC[C@]5(C)[C@@]4(O)[C@H](C)C(=O)OCC(C)C)OC[C@H]3O)OC[C@@H](O)[C@@H]2O)cc1` .
Out: 240 nM

In: If you can, please state the reported IC50 value of `COc1ccc(C(=O)O[C@H]2[C@H](O[C@H]3[C@H](OC(C)=O)[C@@H](O[C@H]4C[C@H]5C[C@@H](O)CC[C@]5(C)[C@@]4(O)[C@H](C)C(=O)OCC(C)C)OC[C@H]3O)OC[C@@H](O)[C@@H]2O)cc1` .
Out: 2600 nM

In: If you can, please state the reported IC50 value of `COc1ccc(C(=O)O[C@H]2[C@H](O[C@H]3[C@H](OC(C)=O)[C@@H](O[C@H]4C[C@H]5C[C@@H](O)CC[C@]5(C)[C@@]4(O)[C@@H](C)C(=O)OCC(C)C)OC[C@H]3O)OC[C@@H](O)[C@@H]2O)cc1` .
Out: 800 nM
